experiment: Pharmacokinetics after intravenous (IV) and oral dosing in rats; type: in vivo, male Wistar Han rats; details: male, Wistar Han, rat, plasma, oral, 0.1 mg/kg, oral 0.1 mg/kg vs IV 0.1 mg/kg
readoutKind: bioavailability

bioavailability in this record for C[C@@H]1CC2C3C[C@H](F)C4=CC(=O)C=C[C@]4(C)[C@@]3(F)[C@@H](O)C[C@]2(C)[C@@]1(OC(=O)c1ccco1)C(=O)SCF (stereo partly shown) [Compound of Formula (I)] : 0.9%

Values were extracted from patent US7592329B2.
